Exercise: state measured self-cleavage kobs at 160 uM GlcN6P for each of the variants provided.
B1: glmS ribozyme (parent)
chain: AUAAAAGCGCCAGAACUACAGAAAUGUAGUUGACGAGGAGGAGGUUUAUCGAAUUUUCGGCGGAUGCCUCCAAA

Variants of: B1
Test: self-cleavage kobs at 160 uM GlcN6P; higher = faster cleavage; RNA array
Details: with glucosamine-6-phosphate
This sample holds only a part of the variants without activity.

>  <variant-id>
G43U U69C C70G

>  <readout-label>
self-cleavage kobs at 160 uM GlcN6P

>  <readout-value>
< 1e-05 s⁻¹

$$$$
>  <variant-id>
A6U G38U G43U

>  <readout-label>
self-cleavage kobs at 160 uM GlcN6P

>  <readout-value>
< 1e-05 s⁻¹

$$$$
>  <variant-id>
U57A G60U

>  <readout-label>
self-cleavage kobs at 160 uM GlcN6P

>  <readout-value>
< 1e-05 s⁻¹

$$$$

Batch of 3 variants: report self-cleavage kobs at 160 uM GlcN6P for each.
1. U56A G59C
2. A15G C16U A52U U57A G59U
3. C50G C68A

Reply text:
1: < 1e-05 s⁻¹; 2: < 1e-05 s⁻¹; 3: 0.000228 s⁻¹
